Every entry's value here was drawn from PubChem BioAssay AID1890.

Lab note: pIC50 readings collected with Replicase polyprotein 1ab (Severe acute respiratory syndrome coronavirus) for the following compounds.
By convention, pIC50 is the negative base-10 log of a molar concentration.

Worked examples follow.
CC(C)c1ccc(N(C(=O)c2ccco2)C(C(=O)NC2CCCC2)c2cccnc2)cc1 (stereo not given) | 5.23
COc1cccc(C(C(=O)NCc2ccco2)N(Cc2ccco2)C(=O)Cn2nnc3ccccc32)c1 (stereo not given) | 5.11
CCC(C)c1ccc(N(C(=O)c2ccco2)C(C(=O)NC2CCCC2)c2cccnc2)cc1 (stereo not given) | 5.65
COc1ccc(C2CC(c3cccs3)=NN2C(=O)CCl)cc1OC (stereo not given) | 5.64

Switching to the query record.
Suppose we examine the compound `CC(=O)c1cc(-c2ccccc2)[nH]c1N1CCCC1` ; what pIC50 value has been reported?
5.33
